- assay_system: recombinant mouse sEH (MsEH) (Mus musculus (Mouse))
- assay_info: Spectrophotometric sEH inhibition assay (NEP2C substrate), recombinant mouse sEH
- Format: biochemical
- conditions: unpublished data, C. Morisseau and B. Hammock, 2000; read-out: IC50 with mouse sEH
Kindly state pIC50 for each of the entries shown.
Give bare numbers, as −log10 of the molar value.

>>> assay_value("CCNC(=O)NC1CCCCC1 [N-cyclohexyl-N′-ethylurea]")
4.29

# input for lookup
For the compound CCCCCCCCCCCCNC(=O)NC1CCCCC1 [N-cyclohexyl-N′-dodecylurea] , what pIC50 is on record?
7.30

###

- assay_system: UniProtKB P34913
- assay_info: Spectrophotometric sEH inhibition assay (NEP2C substrate), recombinant human sEH
- Type: biochemical
- conditions: Table 1; HsEH 0.2 μM (text b16: […])
- Protocol: Recombinant mouse sEH (MsEH) and human sEH (HsEH) were produced in a baculovirus expression system as previously reported. […] The expressed proteins were purified from cell lysate by affinity chromatography. […] Protein concentration was quantified using the Pierce BCA assay using bovine serum albumin as the calibrating standard. The mixture was incubated at 30° C. for 5 minutes. […] Assays were performed in quadruplicate.
quantity_kind: pIC50
Numbers only, as −log10 of the molar value.

Please review the entries below; each comes with its answer.
>>> assay_value("CC(C)(C)CC(C)(C)NC(=O)NC1CCCCC1")
5.51
>>> assay_value("O=C(Nc1ccc(Cl)cc1)NC1CCCCC1")
6.40
>>> assay_value("O=C(Nc1ccc(O)cc1)NC1CCCCC1")
4.95

Under UniProtKB P34913: pIC50 value of `CCCCCCCCNC(=O)NCCC` ?
5.77

###

I'd be grateful if you could share measured log10 of IC50 for these entries.
- assay_system: Human sEH (HsEH) (Homo sapiens (Human), UniProt P34913)
- Sequence (P34913 whole entry): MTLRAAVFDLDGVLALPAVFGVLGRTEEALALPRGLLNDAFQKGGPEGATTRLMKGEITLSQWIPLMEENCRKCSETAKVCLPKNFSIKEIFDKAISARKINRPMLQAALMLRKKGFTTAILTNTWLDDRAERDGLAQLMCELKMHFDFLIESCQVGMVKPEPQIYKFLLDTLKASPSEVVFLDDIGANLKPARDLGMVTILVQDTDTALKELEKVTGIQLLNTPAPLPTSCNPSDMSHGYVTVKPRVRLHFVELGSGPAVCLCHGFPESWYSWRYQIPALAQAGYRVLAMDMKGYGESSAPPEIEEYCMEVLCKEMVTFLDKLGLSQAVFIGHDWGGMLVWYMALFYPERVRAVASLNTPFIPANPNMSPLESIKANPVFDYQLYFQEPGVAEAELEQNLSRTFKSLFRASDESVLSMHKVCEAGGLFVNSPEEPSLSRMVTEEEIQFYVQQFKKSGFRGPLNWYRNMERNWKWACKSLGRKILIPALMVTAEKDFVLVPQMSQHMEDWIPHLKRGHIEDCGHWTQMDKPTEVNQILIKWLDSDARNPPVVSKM
- assay_info: Spectrophotometric sEH inhibition assay (NEP2C substrate), recombinant human sEH
- Type: biochemical
- conditions: Table 2; HsEH […]
Hello, just confirming the data are log10 of IC50 with units of nM.

Field: example entries. Status: answers known.
>>> assay_value("COC(c1ccccc1)C1OC1c1ccc(-c2ccccc2)cc1 (racemic) [4-C6H5—C6H4 / C6H5 / CH—OCH3 / ±]")
3.13
>>> assay_value("CC(O)C1OC1c1ccc([N+](=O)[O-])cc1 (racemic) [4-NO2—C6H4 / CH3 / CH—OH / ±]")
4.59
>>> assay_value("COC(c1ccccc1)C1OC1c1ccccc1 (racemic) [C6H5 / C6H5 / CH—OCH3 / ±]")
4.53
>>> assay_value("ON=C(c1ccccc1)C1OC1c1ccccc1 (racemic) [C6H5 / C6H5 / C═NOH / ±]")
2.46
>>> assay_value("[O-][S+](c1ccccc1)C1OC1c1ccc(-c2ccccc2)cc1 (racemic) [4-C6H5—C6H4 / C6H5 / S═O / ±]")
4.85

Required: log10 of IC50, one value per molecule below.
1. OC(c1ccccc1)C1OC1c1ccc(F)cc1 (racemic) [4-F-C6H4 / C6H5 / CH—OH / ±]
2. O=C(c1ccccc1)C1OC1c1ccccc1 (racemic) [C6H5 / C6H5 / C═O / ±]
3. O=C(c1ccccc1)C1OC1c1ccc(F)cc1 (racemic) [4-F-C6H4 / C6H5 / C═O / ±]
4. Cc1ccc(C(O)C2OC2c2ccc(-c3ccccc3)cc2)cc1 (racemic) [4-C6H5—C6H4 / 4-CH3—C6H4 / CH—OH / ±]
5. OC(c1ccccc1)C1OC1c1ccc(-c2ccccc2)cc1 (racemic) [4-C6H5—C6H4 / C6H5 / CH—OH / ±]
6. CC(=O)C1OC1c1ccc([N+](=O)[O-])cc1 (racemic) [4-NO2—C6H4 / CH3 / C═O / ±]
7. OC(c1ccccc1)C1OC1c1ccccc1 (racemic) [C6H5 / C6H5 / CH—OH / ±]

4.26
2.48
2.48
2.18
2.86
5.43
4.34

###

What IC50 was measured for each of the following?
- assay_system: recombinant mouse sEH (MsEH) (Mus musculus (Mouse), UniProt P34914)
- Sequence (P34914 whole entry): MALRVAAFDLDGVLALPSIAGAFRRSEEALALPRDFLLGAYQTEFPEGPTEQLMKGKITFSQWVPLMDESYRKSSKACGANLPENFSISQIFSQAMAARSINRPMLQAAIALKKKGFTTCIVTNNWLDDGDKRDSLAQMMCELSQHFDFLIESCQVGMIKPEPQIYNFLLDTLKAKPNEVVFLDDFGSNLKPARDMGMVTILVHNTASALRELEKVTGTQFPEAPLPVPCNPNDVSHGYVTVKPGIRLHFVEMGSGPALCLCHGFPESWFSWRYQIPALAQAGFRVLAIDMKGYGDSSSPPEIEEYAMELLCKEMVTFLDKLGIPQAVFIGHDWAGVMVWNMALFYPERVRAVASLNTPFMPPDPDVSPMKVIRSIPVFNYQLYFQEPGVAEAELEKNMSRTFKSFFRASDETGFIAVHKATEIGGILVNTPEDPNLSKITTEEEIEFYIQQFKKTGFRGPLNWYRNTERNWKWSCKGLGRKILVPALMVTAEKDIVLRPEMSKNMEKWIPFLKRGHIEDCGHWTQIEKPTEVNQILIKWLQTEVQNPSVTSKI
- assay_info: Spectrophotometric sEH inhibition assay (NEP2C substrate), recombinant mouse sEH
- Assay type: biochemical
- conditions: Table 2; MsEH […]; read-out: Mouse sEH IC50

Below: 10 compounds and their reported IC50.
>>> assay_value("O=C(c1ccccc1)C1OC1c1ccc(-c2c(F)c(F)c(F)c(F)c2F)cc1 (racemic)")
"0.14 µM"
>>> assay_value("OCC1OC1c1ccccc1 (stereo not shown) [C6H5 / H / CH—OH / R,R]")
"1100 µM"
>>> assay_value("OC(c1ccccc1)C1OC1c1ccccc1 (racemic)")
"12.6 µM"
>>> assay_value("O=C(c1ccccc1)C1OC1c1ccc(F)cc1 (racemic)")
"1.3 µM"
>>> assay_value("O=[N+]([O-])c1ccc(C2OC2CO)cc1 (racemic) [4-NO2—C6H4 / H / CH—OH / ±]")
"5 µM"
>>> assay_value("OC(c1ccccc1)C1OC1c1ccc(-c2ccccc2)cc1 (racemic)")
"0.51 µM"
>>> assay_value("Cc1ccc(C(O)C2OC2c2ccc(-c3ccccc3)cc2)cc1 (racemic)")
"0.09 µM"
>>> assay_value("O=C(c1ccccc1)C1OC1c1ccccc1 (racemic)")
"2.9 µM"
>>> assay_value("O=[N+]([O-])c1ccc(C2OC2CO)cc1 (stereo not shown) [4-NO2—C6H4 / H / CH—OH / R,R]")
"1200 µM"
>>> assay_value("Cc1ccc(C(=O)C2OC2c2ccc(-c3ccccc3)cc2)cc1 (racemic)")
"0.1 µM"

Required: IC50, one value per compound below.
1. ON=C(c1ccccc1)C1OC1c1ccccc1 (racemic)
2. ON=C(c1ccccc1)C1OC1c1ccc(-c2ccccc2)cc1 (racemic)
3. CC(O)C1OC1c1ccc([N+](=O)[O-])cc1 (racemic)
4. O=[N+]([O-])c1ccc(C2OC2CO)cc1 (stereo not shown) [4-NO2—C6H4 / H / CH—OH / S,S]
5. [O-][S+](c1ccccc1)C1OC1c1ccc(-c2ccccc2)cc1 (racemic)
6. CC(=O)C1OC1c1ccc([N+](=O)[O-])cc1 (racemic)

1. 3.5 µM
2. 42 µM
3. 6.5 µM
4. 1.6 µM
5. 73 µM
6. 163 µM

###

Record form. Attribute: IC50. Fill in for each entry.
- assay_system: Human sEH (HsEH) (Homo sapiens (Human), UniProt P34913)
- assay_info: Spectrophotometric sEH inhibition assay (NEP2C substrate), recombinant human sEH
- Type: biochemical
- conditions: Table 2; HsEH […]
Give bare numbers, in nM.

Parameters: items (list). Returns: IC50 for each item.
1. Cc1ccc(C(=O)C2OC2c2ccc(-c3ccccc3)cc2)cc1 (racemic)
2. [O-][S+](c1ccccc1)C1OC1c1ccccc1 (racemic)
3. ON=C(c1ccccc1)C1OC1c1ccc(-c2ccccc2)cc1 (racemic)
4. O=C(c1ccccc1)C1OC1c1ccc(-c2c(F)c(F)c(F)c(F)c2F)cc1 (racemic)

1: 190; 2: 310; 3: 35000; 4: 200
